Listing: TGI of selected compounds
Tested on: UO-31 renal
measurement-notes: NCI tumour cell line growth inhibition, 48 h
observed-property: TGI

chemical_smiles=Clc1ccc(C=Nc2ccc3c(c2)Cc2ccccc2-3)c(Cl)c1 observed_property=TGI endpoint_result="> 100 µM"
chemical_smiles=Cn1c(=O)c(Cc2ccccc2F)cc2cnc(NC3CCOCC3)nc21 observed_property=TGI endpoint_result="> 25 µM"
chemical_smiles=On1c(-c2ccccc2)nc2ccccc2c1=S observed_property=TGI endpoint_result="> 100 µM"
chemical_smiles=COc1cc2c3c(c1OC)C1(C=CC(=O)C=C1)C[C@H]3N(C)CC2 observed_property=TGI endpoint_result="> 100 µM"
chemical_smiles=Nc1ccc2cc3ccc(N)cc3nc2c1 observed_property=TGI endpoint_result="5.13 µM [middle of 4 runs]"

###

Test system: MOLT-4 leukemia
measurement-notes: NCI tumour cell line growth inhibition, 48 h
observed-property: TGI

molecule="Nc1ccn(C2CCC(CO)O2)c(=O)n1 (stereo unspecified)" endpoint_result="> 1000 µM"
molecule=CCSc1nc(SCC)c2cn[nH]c2n1 endpoint_result="> 100 µM"
molecule=Nc1nc(Cl)cc(NCC2(CO)CCCC2)n1 endpoint_result="> 100 µM"
molecule=CCOC(=O)NC(Nc1ccc([N+](=O)[O-])cc1)(C(F)(F)F)C(F)(F)F endpoint_result="> 100 µM"
molecule=COc1ccc(OC)c2c(C(=O)O)c(Cc3ccccc3)ccc12 endpoint_result="> 100 µM"
molecule=Cn1c2ccccc2c(=O)c2ccc(Cl)cc21 endpoint_result="> 10 µM"

###

Tested on: SK-MEL-28 melanoma
measurement-notes: NCI tumour cell line growth inhibition, 48 h
observed-property: TGI

compound="CSc1cnc2ccccc2c1SC1CN(Cc2ccccc2)c2ccccc2C1=O (configuration not stated)" observed_property=TGI endpoint_result="> 100 µM"
compound=CC(=O)O[C@H]1CC[C@@]2(C)C(=CC[C@H]3[C@@H]4C[C@H](N5CCOCC5)[C@H](OC(C)=O)[C@@]4(C)CC[C@@H]32)C1 observed_property=TGI endpoint_result="> 100 µM"
compound="O=C1NC2OC(C(O)CO)C(O)C2O1 (configuration not stated)" observed_property=TGI endpoint_result="> 100 µM"
compound=COc1cc2[nH]c(C(=O)c3cc(OC)c(OC)c(OC)c3)c(N)c2cc1C#CC1CC1 observed_property=TGI endpoint_result="> 100 µM"
compound=CN1[C@@H]2C[C@@H](OC(=O)[C@H](CO)c3ccccc3)C[C@H]1[C@@H]1O[C@@H]12 observed_property=TGI endpoint_result="> 100 µM"
compound="CC1=CC(C/C(C)=C/COc2ccc3ccc(=O)oc3c2)OC1=O (configuration not stated)" observed_property=TGI endpoint_result="> 100 µM"
compound=O=C1[C@@H]2C(c3ccccc3F)=NO[C@@H]2C(=O)N1c1ccc(Cc2ccc(N3C(=O)[C@H]4C(c5ccccc5F)=NO[C@H]4C3=O)cc2)cc1 observed_property=TGI endpoint_result="> 100 µM"
compound=CCOC(=O)c1ccc(C)c(N=NN(C)C)c1 observed_property=TGI endpoint_result="> 100 µM"
compound=C=CC/C=C/C/C=C/CCCCCCCc1cccc(O)c1C(=O)O observed_property=TGI endpoint_result="89.6 µM"
compound=CC(C)C[C@H](NC(=O)/C=C/Cn1ccc2ccccc2c1=O)B(O)O observed_property=TGI endpoint_result="36 µM"
compound=COc1nc2nccnc2c(=O)n1C observed_property=TGI endpoint_result="> 10 µM"
compound="CC(=O)NC1c2ccccc2C(C)(C)C12CCC1(CC2)OCCO1 (configuration not stated)" observed_property=TGI endpoint_result="> 100 µM"
compound=Br[C](Br)(Br)[Hg][c]1ccccc1 observed_property=TGI endpoint_result="27.8 µM"
compound=O=C1CSC(/C(=N/Nc2ccccc2)c2nc3ccccc3[nH]2)=N1 observed_property=TGI endpoint_result="79 µM"
compound=CC(C)(C)OC(=O)NCCCNC1(c2cc3ccccc3s2)CCCCC1 observed_property=TGI endpoint_result="29.9 µM"
compound="Cn1c2ccccc2c(=O)c2cccc(C(=O)NC(CCCN=C(N)N)C(=O)O)c21 (configuration not stated)" observed_property=TGI endpoint_result="> 100 µM"
compound="O=C1OC2CCCC[C@@H]2C2C[C@]34CCCCC3[C@@H](C(=O)O4)C12 (some centres not stated)" observed_property=TGI endpoint_result="> 100 µM"
compound=COc1ccc(/C=C/C(=O)C(CC2CCC2)C(=O)/C=C/c2ccc(OC)c(OC)c2)cc1OC observed_property=TGI endpoint_result="5.39 µM"
compound=Nc1ccc2cc3ccc(N)cc3nc2c1 observed_property=TGI endpoint_result="5.11 µM [middle of 4 runs]"
compound=Cn1c2ccccc2c(=O)c2ccc(Cl)cc21 observed_property=TGI endpoint_result="> 10 µM"
compound=C=C([C@@]1(O)C[C@H]2[C@H](CCC2(OC)OC)[C@@H]2c3ccccc3O[C@@H]21)[Si](C)(C)C observed_property=TGI endpoint_result="> 100 µM"
compound=COc1cccc2c(=O)c3c(sc12)c(N1CCNCC1)nc1ccccc13 observed_property=TGI endpoint_result="3.4 µM"

###

Tested on: OVCAR-4 ovarian
measurement-notes: NCI tumour cell line growth inhibition, 48 h
Below: a set of entries, each annotated with reported TGI.
observed-property: TGI

compound=CC(C)(C[C@H]1CN(S(=O)(=O)c2cccc(C(F)(F)F)c2)c2cc(-c3cc(F)cc(OC(F)F)c3)ccc2O1)C(=O)O endpoint_result="41.7 µM"
compound="CC(C)CC(O)P(=O)(O)O (configuration not stated)" endpoint_result="> 100 µM"
compound=O=[N+]([O-])/C(C(Cl)=C(Cl)Cl)=C(\N1CCCCC1)n1cncn1 endpoint_result="36.7 µM"
compound="COc1ccc2cc(C(C)C(=O)N3CCOC3=O)ccc2c1 (configuration not stated)" endpoint_result="> 100 µM"
compound=O=C1Nc2ccc(F)cc2/C1=C/c1ccc[nH]1 endpoint_result="> 25 µM"
compound="CC1=C(CO)C(=O)O[C@@H]([C@@H](CO)[C@H]2CCC3C4C[C@@H](O)[C@@]5(O)CC=CC(=O)[C@]5(C)C4CC[C@@]32C)C1 (some centres not stated)" endpoint_result="> 100 µM"
compound=COc1cc(/C=C(\C#N)c2ccccc2)cc(OC)c1 endpoint_result="> 100 µM"
compound="Cc1ccc2c(c1)C(=O)C1(C2)Cc2cccc(C)c2C1=O (configuration not stated)" endpoint_result="> 100 µM"
compound=Nc1[nH]nc2nc3ccc(C(F)(F)F)cc3nc12 endpoint_result="> 100 µM"
compound="c1ccc(C2Nc3ccccc3C3OCCCC23)cc1 (configuration not stated)" endpoint_result="> 100 µM"
compound=CCOc1ccc(/C=C2/C(=O)N=C(NC(C)=O)N2C)cc1 endpoint_result="> 100 µM"
compound=CCn1c(SCc2ccc(C)cc2)nnc1-c1nn(-c2ccc(Cl)cc2Cl)c(-c2ccc(Cl)cc2)c1C endpoint_result="12.4 µM"

###

Tested on: HOP-92 NSCLC
measurement-notes: NCI tumour cell line growth inhibition, 48 h
observed-property: TGI

molecule="O=C1NC2OC(C(O)CO)C(O)C2O1 (stereo unspecified)" measured_target="HOP-92 NSCLC" endpoint_result="> 100 µM"
molecule=CCCSc1nc(COC(=O)NC)c(COC(=O)NC)n1C measured_target="HOP-92 NSCLC" endpoint_result="> 100 µM"
molecule="CC1CCCC(CC(=O)O)(CC(=O)O)C1 (stereo unspecified)" measured_target="HOP-92 NSCLC" endpoint_result="> 100 µM"
molecule=On1c(-c2ccccc2)nc2ccccc2c1=S measured_target="HOP-92 NSCLC" endpoint_result="> 100 µM"
molecule=O=c1cccc(C#CC#CC2=CCCCC2)o1 measured_target="HOP-92 NSCLC" endpoint_result="> 23 µM"
molecule="CC12CCC(O)CC1CCC1C2CCC2(C)C(C(=O)CC(O)C(F)(F)F)CCC12 (stereo unspecified)" measured_target="HOP-92 NSCLC" endpoint_result="> 85.2 µM"

###

Below is a list of entries, each paired with its recorded TGI value.
System: U251 CNS
measurement-notes: NCI tumour cell line growth inhibition, 48 h
observed-property: TGI

molecule=O=C(O)c1ccc(OCc2nc3cc(C(F)(F)F)ccc3nc2-c2ccccc2)cc1 measured_target="U251 CNS" observed_property=TGI endpoint_result="> 100 µM"
molecule=CSc1sc2ccccc2[s+]1 measured_target="U251 CNS" observed_property=TGI endpoint_result="> 100 µM"
molecule="CC(C(O)Cc1ccccc1)N(C)N=Nc1ccc([N+](=O)[O-])cc1 (stereo unspecified)" measured_target="U251 CNS" observed_property=TGI endpoint_result="38.5 µM"
molecule=CCCCN=C(c1ccccc1)N1CCOCC1 measured_target="U251 CNS" observed_property=TGI endpoint_result="> 100 µM"
molecule=C=C1CN2CC(=C)CN(C1)CS(=O)(=O)N1CC(=C)CN(CC(=C)C1)S(=O)(=O)N1CC(=C)CN(CC(=C)C1)S(=O)(=O)C2 measured_target="U251 CNS" observed_property=TGI endpoint_result="> 100 µM"
molecule=CCOC(=O)NC(=O)c1cn(CCCOC(=O)CCCCCCCCCCC(=O)OCCCn2cc(C(=O)NC(=O)OCC)c(=O)[nH]c2=O)c(=O)[nH]c1=O measured_target="U251 CNS" observed_property=TGI endpoint_result="> 100 µM"
